Hey, just so you know, these numbers are from patent US20230357354A1.

target: recombinant His-tagged CD38 (Homo sapiens, UniProt P28907); test: Pepscan-based ELISA of His-tagged CD38 on CD31 peptide arrays; assay type: binding; settings: mimic type LOOP7 (single loop, mP2 CLIPS); sample with the highest signal
Threshold 500 mAU: Value (binding intensity of His-tagged CD38), LOOP7 conformational peptide array strictly smaller gives True, otherwise False.

Completed entries (count: 5):
# substance, system_name, assigned_class
measured = [
    ("214 (CDVEYQSVC) [compound 214]", "recombinant His-tagged CD38 (Homo sapiens, UniProt P28907)", "False"),
    ("216 (CEVQISILC) [compound 216]", "recombinant His-tagged CD38 (Homo sapiens, UniProt P28907)", "False"),
    ("184 (CKSTESYFC) [compound 184]", "recombinant His-tagged CD38 (Homo sapiens, UniProt P28907)", "True"),
    ("204 (CSIVVNITC) [compound 204]", "recombinant His-tagged CD38 (Homo sapiens, UniProt P28907)", "True"),
    ("182 (CDDVLFYNC) [compound 182]", "recombinant His-tagged CD38 (Homo sapiens, UniProt P28907)", "False"),
]

Problem: # check: Value (binding intensity of His-tagged CD38), LOOP7 conformational peptide array < 500 mAU for 173 (CNLTLQSFC) [compound 173]
Solution: True

----------
target: recombinant His-tagged CD38 (Homo sapiens); experiment: Pepscan-based ELISA of His-tagged CD38 on CD31 peptide arrays; assay type: binding; conditions: mimic type BET (β-turn mimic, mP2 CLIPS); sample with the highest signal
measured_quantity: Value (binding intensity of His-tagged CD38), BET conformational peptide array (mAU)
Give bare numbers, in mAU.

Worked set:
# substance, experimental_result
data = [
    ("267 (CSHVKPQHQMPGYKDDVLFYNC) [compound 267]", 662),
    ("271 (CKDDVLFYNIPGMKSTESYFIC) [compound 271]", 695),
    ("266 (CTSHVKPQHQPGFYKDDVLFYC) [compound 266]", 725),
    ("10 (CMVKLKREKNPGDQNFVILEFC; Human sCD31 peptide) [compound 10]", 1497),
]

# return Value (binding intensity of His-tagged CD38), BET conformational peptide array for each item in the list
1. 268 (CVKPQHQMLFPGDDVLFYNISC) [compound 268]
2. 269 (CKPQHQMLFYPGDVLFYNISSC) [compound 269]

Solution:
[792, 641]

----------
biological target: recombinant His-tagged CD38 (Homo sapiens); test: Pepscan-based ELISA of His-tagged CD38 on CD31 peptide arrays; format: binding; details: mimic type LOOP7 (single loop, mP2 CLIPS); sample with the highest signal
Quick rule for you: Value (binding intensity of His-tagged CD38), LOOP7 conformational peptide array at 500 mAU or higher means y, lower means n.

# substance, assigned_class
data = [
    ("185 (CTESYFIPC) [compound 185]", "y"),
    ("225 (CGEYYSTAC) [compound 225]", "y"),
    ("222 (CKEQEGEYC) [compound 222]", "n"),
    ("220 (CGEDIVLQC) [compound 220]", "n"),
    ("218 (CESGEDIVC) [compound 218]", "n"),
]

Problem: API: above_or_equal(metric=Value (binding intensity of His-tagged CD38), LOOP7 conformational peptide array, cutoff=500 mAU) for item 174 (CTLQSFADC) [compound 174]
Solution: n

Problem: How about this substance: 205 (CIVVNITEC) [compound 205]
Solution: y

Problem: How about this substance: 181 (CKDDVLFYC) [compound 181]
Solution: y

Problem: How about this substance: 189 (CEVRIYDSC) [compound 189]
Solution: y
